Where do the numbers come from? From paper PMC8903829.

Experiment: Bioanalytical assessment of plasma and brain concentrations after rat DC-MES assay
Format: in vivo
Settings: rat, in vivo, 6 mg/kg, Study18060, 6 mg/kg, Rat DC-MES; read-out: Mean [Brain]
measured.parameter: concentration at 2 h (nM)
Record the value in nM, omitting the unit from your answer.

What value of concentration at 2 h has been recorded for this entry: COC[C@@H](NC(C)=O)C(=O)NCc1ccccc1 [lacosamide, Lacosamide, reference compound]
1780

###

Assay: Bioanalytical assessment of plasma and brain concentrations after 6 Hz assay
Format: in vivo, mouse
Details: Scn8a N1768D/+, mouse, brain, oral, 100 mg/kg, Study16162, 100 mg/kg, SCN8A mouse 6HZ; read-out: Mean [Brain]
measured.parameter: concentration at 2 h (µM)
Express it in µM; write the number only.

What value of concentration at 2 h has been recorded for this entry: NC(=O)N1c2ccccc2C=Cc2ccccc21 [carbamazepine, Carbamazepine, reference compound]
130
